Let's look at some compounds and their measured CC50.
Tested on: Vero
assay: Cytotoxicity against african green monkey Vero cells after 72 hrs by CellTiterGlo assay
conditions: chlorocebus sabaeus, vero, 72 h

// solved cases for CC50 follow
CC1CCCCN1c1n[n+]([O-])c2cc3c(cc2[n+]1[O-])CCC3 (centres undefined) ... > 50 µg/mL
COc1cc2c(cc1C)[n+]([O-])nc(NC1CCC1)[n+]2[O-] ... > 50 µg/mL
[O-][n+]1nc(NC2CCC2)[n+]([O-])c2ccc(Br)cc21 ... 3.8 µg/mL

Can you look up CC50 on Vero for CO[C@H]1/C=C/O[C@@]2(C)Oc3c(C)c(O)c4c(O)c(c(/C=N/N5CCN(C)CC5)c(O)c4c3C2=O)NC(=O)/C(C)=C\C=C\[C@H](C)[C@H](O)[C@@H](C)[C@@H](O)[C@@H](C)[C@H](OC(C)=O)[C@@H]1C ?
> 50 µg/mL

Thanks! And [O-][n+]1nc(NC2CCC2)[n+]([O-])c2ccccc21 ?
8.9 µg/mL

Same question, CN(Cc1ccccc1)c1n[n+]([O-])c2cc3c(cc2[n+]1[O-])CCC3 this time
17 µg/mL

CCNc1n[n+]([O-])c2cc(Cl)ccc2[n+]1[O-] ?
2.6 µg/mL

Okay, and CSc1c(C)[n+]([O-])c2ccccc2[n+]1[O-] ?
> 16 µg/mL

Now try Cc1cccc2c1[n+]([O-])c(NC1CCC1)n[n+]2[O-] .
22 µg/mL

Quick one: COCCNC(=O)c1ccc2c(c1)[n+]([O-])c(C(C)=O)c(C)[n+]2[O-]
> 16 µg/mL

One more compound: [O-][n+]1nc(NC2CCC2)[n+]([O-])c2ccc(Cl)cc21
1.6 µg/mL

Item: CN(CCc1ccccc1)c1n[n+]([O-])c2cc3c(cc2[n+]1[O-])CCC3
40 µg/mL

And the next one, CC(C)CCC(C)Nc1n[n+]([O-])c2ccccc2[n+]1[O-] (centres undefined) ?
4.1 µg/mL

Also need [O-][n+]1nc(N2CCCC2)[n+]([O-])c2cc3c(cc21)CCC3 , thanks.
25 µg/mL

[H][C@]12C[C@]3([H])C[C@]([H])(C1)[C@H](Nc1n[n+]([O-])c4ccccc4[n+]1[O-])[C@]([H])(C2)C3 ?
7.3 µg/mL

Try this compound too: [O-][n+]1nc(N2CCOCC2)[n+]([O-])c2ccccc21
5.4 µg/mL

Now the compound CS(=O)(=O)N1CCN(c2n[n+]([O-])c3cc4c(cc3[n+]2[O-])CCC4)CC1
> 50 µg/mL

And what about the compound O=C1CN(/N=C/c2ccc([N+](=O)[O-])o2)C(=O)N1 ?
23 µg/mL

Next: [O-][n+]1nc(N[C@@H]2C[C@H]3CC[C@@H]2C3)[n+]([O-])c2ccc(Cl)cc21
1.1 µg/mL

====

System: Mycobacterium tuberculosis
assay: Antitubercular activity against p-amino-salicyclic acid-resistant Mycobacterium tuberculosis ATCC 35821 after 5 days by resazurin-based microplate assay
Type: functional
conditions: ATCC 35821, 120 h
observationType: log10(MIC90) (log10 of the value in µg/mL)
The base-10 logarithm of MIC90, taken with MIC90 in µg/mL, is what appears here.

CN(CCc1ccccc1)c1n[n+]([O-])c2cc3c(cc2[n+]1[O-])CCC3 ... -0.82
CCNc1n[n+]([O-])c2ccccc2[n+]1[O-] ... 0.08
CCNc1n[n+]([O-])c2cccc(C)c2[n+]1[O-] ... -0.51
[O-][n+]1nc(N2CCCC2)[n+]([O-])c2cc3c(cc21)CCC3 ... -0.51
CC1CCCCN1c1n[n+]([O-])c2cc3c(cc2[n+]1[O-])CCC3 (stereo not drawn) ... -0.21
[O-][n+]1nc(NC2CCC2)[n+]([O-])c2cc3c(cc21)CCC3 ... -0.21
[O-][n+]1nc(N2CCCC2)[n+]([O-])c2ccccc21 ... -0.21
CN(Cc1ccccc1)c1n[n+]([O-])c2cc3c(cc2[n+]1[O-])CCC3 ... -1.15
[O-][n+]1nc(N2CCCCC2)[n+]([O-])c2cc3c(cc21)CCC3 ... -0.51
CCNc1n[n+]([O-])c2cc(C)c(OC)cc2[n+]1[O-] ... 0.08

Quick one: log10(MIC90) for CN(C)c1n[n+]([O-])c2cc3c(cc2[n+]1[O-])CCC3 ?
-0.82

Again, but for CC(C)(C)Nc1n[n+]([O-])c2ccccc2[n+]1[O-]
0.08

Input CCNc1n[n+]([O-])c2cc3c(cc2[n+]1[O-])CCC3
0.08

Data origin: ChEMBL document CHEMBL2150981
